Measurement Target: Platelet-derived growth factor receptor (Mus musculus, UniProt P05622+P26618)
Method Description: Inhibition against of platelet-derived growth factor receptor (PDGFr)
pIC50: −log10 of the molar value.
Recorded pIC50 values for a group of compounds are listed next.
Measurement Name: pIC50

entry_smiles=Nc1ncc2cc(-c3c(Cl)cccc3Cl)c(=O)n(CC(=O)O)c2n1 measurement_name=pIC50 comparison_operator=< measured_result=4.30
entry_smiles=Cn1c(=O)c(-c2ccsc2)cc2cnc(Nc3ccncc3)nc21 measurement_name=pIC50 comparison_operator== measured_result=6.32
entry_smiles=CNc1ncc2cc(-c3ccsc3)c(=O)n(C)c2n1 measurement_name=pIC50 comparison_operator=< measured_result=4.30
entry_smiles=COC(=O)Cn1c(=O)c(-c2c(Cl)cccc2Cl)cc2cnc(N)nc21 measurement_name=pIC50 comparison_operator== measured_result=5.30
entry_smiles=Cn1c(=O)c(-c2c(Cl)cccc2Cl)cc2cnc(N)nc21 measurement_name=pIC50 comparison_operator== measured_result=5.42
entry_smiles=Cn1c(=O)c(-c2ccccc2)cc2cnc(Nc3ccccc3)nc21 measurement_name=pIC50 comparison_operator== measured_result=6.54
entry_smiles=Nc1ncc2cc(-c3c(Cl)cccc3Cl)c(=O)n(CCCOCc3ccccc3)c2n1 measurement_name=pIC50 comparison_operator== measured_result=5.17
entry_smiles=CC(C)Cn1c(=O)c(-c2c(Cl)cccc2Cl)cc2cnc(N)nc21 measurement_name=pIC50 comparison_operator== measured_result=5.80
entry_smiles=CCCCn1c(=O)c(-c2c(Cl)cccc2Cl)cc2cnc(N)nc21 measurement_name=pIC50 comparison_operator== measured_result=5.92
entry_smiles=CCN(CC)CCOc1ccc(Nc2ncc3cc(-c4ccccc4)c(=O)n(C)c3n2)cc1 measurement_name=pIC50 comparison_operator== measured_result=7.38
entry_smiles=Cn1c(=O)c(-c2ccsc2)cc2cnc(N)nc21 measurement_name=pIC50 comparison_operator== measured_result=4.61
entry_smiles=Nc1ncc2cc(-c3c(Cl)cccc3Cl)c(=O)n(CCCO)c2n1 measurement_name=pIC50 comparison_operator== measured_result=5.96
entry_smiles=Cn1c(=O)c(-c2ccc(-c3ccccc3)cc2)cc2cnc(Nc3ccccc3)nc21 measurement_name=pIC50 comparison_operator=< measured_result=4.30
entry_smiles=CCN(CC)CCOc1ccc(Nc2ncc3cc(-c4ccsc4)c(=O)n(C)c3n2)cc1 measurement_name=pIC50 comparison_operator== measured_result=7.27
entry_smiles=Cn1c(=O)c(-c2cccs2)cc2cnc(Nc3ccccc3)nc21 measurement_name=pIC50 comparison_operator== measured_result=6.02
entry_smiles=CCCn1c(=O)c(-c2c(Cl)cccc2Cl)cc2cnc(N)nc21 measurement_name=pIC50 comparison_operator== measured_result=5.92
entry_smiles=Cn1c(=O)c(-c2ccsc2)cc2cnc(Nc3ccccc3)nc21 measurement_name=pIC50 comparison_operator== measured_result=6.10
entry_smiles=CCN(CC)CCOc1ccc(Nc2ncc3cc(-c4ccccc4)c(=O)n(CC)c3n2)cc1 measurement_name=pIC50 comparison_operator== measured_result=7.51
